// data source = PubChem BioAssay (NCI)

Test system: SK-MEL-2 melanoma
Test: NCI-60 one-dose screen, 48 h (100 = growth as untreated, 0 = no growth, -100 = all killed)
Conditions: 10 µM unless noted
This is part of a sample that, as a whole, favours compounds with a hit. Of some 83,000 tested, about 20% had one in any assay.
Documented growth across a set of molecules
Answer with a number only, understood to be in %.

molecule: O=C(O)c1cn(C2CC2)c2cc(N3CCN(C(=O)CSc4nc(NS(=O)(=O)c5ccccc5)cc(=O)[nH]4)CC3)c(F)cc2c1=O
growth, %: 79.7

// query Identify growth associated with the molecule Nc1nc2ccc(CNc3ccc(C(=O)NC(CC(=O)O)C(=O)O)cc3)cc2c(=O)[nH]1 (centres undefined)
// result 51.9

// query Determine from records and report growth for COc1cc(C(=O)N2CCN(C(=O)c3cc(OC)c(OCc4ccccc4)cc3N)CC2)c(N)cc1OCc1ccccc1
// result 102

// query Provide measured growth value, entry: COc1ccc(C(=O)NC(=O)Nc2ccc3c(c2)NC(=O)/C3=C\c2[nH]c(C)c(CCC(=O)O)c2C)c(F)c1
// result -0.585
